- ASSAYED_TARGET: MalE (E. coli, UniProt P0AEX9 27-396 = MBP)
- ASSAY_EXPLANATION: 19F NMR

| BINDER | binding result |
| --- | --- |
| HdeA mutant with 19F probe incorporated at site 24 (natural protein, 5-fluorotryptophan at 24) ADAQKAADNKKPVNSFTCEDFLAWDESFQPTAVGFAEALNNKDKPEDAVLDVQGIATVTPAIVQACTQDKQANFKDKVKGEFDKIKKDM | binds |
| HdeA mutant with 19F probe incorporated at site 49 (natural protein, 5-fluorotryptophan at 49) ADAQKAADNKKPVNSFTCEDFLAVDESFQPTAVGFAEALNNKDKPEDAWLDVQGIATVTPAIVQACTQDKQANFKDKVKGEFDKIKKDM | binds |
| HdeA mutant with 19F probe incorporated at site 35 (natural protein, 5-fluorotryptophan at 35) ADAQKAADNKKPVNSFTCEDFLAVDESFQPTAVGWAEALNNKDKPEDAVLDVQGIATVTPAIVQACTQDKQANFKDKVKGEFDKIKKDM | binds |
